- System: MOLT-4 leukemia
- Test Protocol: NCI tumour cell line growth inhibition, 48 h
Listed below: TGI values for each entry.

{"Compound": "CCCC/C(=C\\C1=C(C)C(=O)C(OC)=C(OC)C1=O)C(=O)O", "TGI": "> 100 µM"}
{"Compound": "COc1ccc(-c2nccn2-c2ccc(OC)cc2)cc1", "TGI": "89.4 µM"}
{"Compound": "O=c1ccn(C2OC(CO)C(P(=O)(O)O)C2O)c(=O)[nH]1 (stereo unspecified)", "TGI": "> 100 µM"}
{"Compound": "Cc1c(N2C(=O)C(Cl)C2c2ccc(Cl)cc2)c(=O)n(-c2ccccc2)n1C (stereo unspecified)", "TGI": "> 100 µM"}
{"Compound": "COc1ccc(-c2nn(-c3cccc(Cl)c3)cc2-c2cc(-c3ccccc3)[nH]c(=O)c2C#N)cc1", "TGI": "> 50 µM"}
{"Compound": "Cc1[nH]c2ccccc2c1C1Cc2ccccc2N1C(=O)C#Cc1ccc([N+](=O)[O-])cc1 (stereo unspecified)", "TGI": "> 100 µM"}
{"Compound": "COC(=O)c1c2c(cc3c1CCC3)CCC2", "TGI": "> 100 µM"}
{"Compound": "CC1CC(O)C(=O)C(O[C@@H]2C[C@@H]3CC[C@@H]4[C@H](CC[C@]5(C)C(C6=CC(=O)OC6)CC[C@]45O)[C@@]3(C=O)C[C@H]2O)O1 (stereo partly specified)", "TGI": "0.0991 µM"}
{"Compound": "Cn1c(=O)c2c(nc(C(=N)SCC(=O)O)n2C)n(C)c1=O", "TGI": "50.9 µM"}
{"Compound": "COc1ccc(CC2c3c(cc(OC)c(OC)c3OC)CCN2C)cc1OC (stereo unspecified)", "TGI": "> 100 µM"}
{"Compound": "Cc1ccccc1C1=[N+]([O-])c2ccc(Cl)cc2C1=O", "TGI": "24.3 µM"}
